Reference for the values: patent US20190309034A1

# assayed system: Recombinant soluble trimeric human BAFF (furin-cleaved human BAFF 134-285) (human, UniProt Q9Y275 134-285)
# assay name: cell-based or functional assay
recorded metric: Soluble trimeric huBAFF (52 pM) Neutralization IC90
Express your answer in pM, writing the number without its unit.

Record 210D9B8 (antibody, V domains shown, Mouse lead antibody (hybridoma)) VH: QVQLQQPGTEFVKPGASVKLSCEASGYTFITYWMHWVKQRPGRGLEWIGGIDPNSGVIKYNEKFKSKATLTVDKPSSTAYMQLSSLTSEDSAVYYCARGEDLLIRTDAMDYWGQGTSVTVSS VL: DIVMTQSQKFVSTTLGDRVSITCKASQSVGIAVAWYQQKPGHSPNLLIFSTSNRYTGVPDRFTGSGSGTDFTLTISDVQSEDLADYFCQQYSRYPRTFGGGTKLEIK , field Soluble trimeric huBAFF (52 pM) Neutralization IC90: 156

Given item 227D3B11 (antibody, V domains shown, Mouse lead antibody (hybridoma)) VH: QVQLQQPGAELVKPGASVKLSCKASGYSFSTFFIHWIQQRPGRGLEWIGRIDPNSGGTKYNEKFESKATLTVDKPSSTAYMHLSSLTSEDSAVYYCARGEDLLIRTDAMDYWGQGTSVTVSS VL: DIVMTQSQKIMSTTVGDRVSITCKASQNAGIDVAWFQQKPRQSPKLLIFSTSNRYTGVPDRFAGSGSGTDFTLTIYNVQSEDLADYFCLQYRSYPRTFGGGTKLEIK , the value recorded as its Soluble trimeric huBAFF (52 pM) Neutralization IC90 is 128

More entries:
The recorded Soluble trimeric huBAFF (52 pM) Neutralization IC90 for entry 250E5A11 (antibody, V domains shown, Mouse lead antibody (hybridoma)) VH: QVQLQQPGTELVKPGASVKLSCKASGYTFSIFCIHWVQQRPGRGLEWIGRIDPSSGGTKYNERFENKATLTVDKSSSTAYMQLSSLTFEDSAVYYCARGEDLLVRTDAMDYWGQGTSVTVSS VL: DIVMTQSQKFMSTTVGDRVSITCKASQNAGAAVAWFQQKPGQSPKLLIYSASNRYTGVPDRFTGSGSGTDFTLTITNVQSEDLADYICQQYRSFPRTFGGGTKLEIK equals 97.5
